# EXPERIMENTAL PROTOCOL: DUSP6 inhibitors restoring Erk phosphorylation by chemical complementation, primary imaging in DUSP6-transfected HeLa (AID 609)
# APPLIED CONDITIONS: HeLa MKP-3 transfected, phospho-Erk imaging KS statistic; measured here: nuclear pErk red intensity z-score; at 10 µM; stronger effect = higher value; cells stimulated with TPA for 15 min
The class of a record is decided solely by its measured z-score; consult low value = under -0.4, medium value = from -0.4 up to 0.5, high value = 0.5 and over

Qu. Which category fits this record: O=S(=O)(c1ccccc1)N1CCC(N2CCN(c3ccccc3)CC2)CC1
Ans. low value

Qu. Which category fits this record: CCOC(=O)c1ccccc1OCc1cc(/C=N/n2cncn2)ccc1OC
Ans. medium value

Qu. Which category fits this record: CN1CCN(CCCCOc2ccc(F)cc2)CC1
Ans. high value

Qu. Which category fits this record: Cn1c(=O)c2c(ncn2CCO)n(C)c1=O
Ans. medium value

Qu. Which category fits this record: CCOC(=O)CSc1nc(N)c2c3c(sc2n1)CCCC3
Ans. low value

Qu. Which category fits this record: CCOC(=O)CSc1nnc2n(C3CCCCC3)c(=O)c3c4c(sc3n12)CCCC4
Ans. low value

Qu. Which category fits this record: COc1ccc(S(=O)(=O)N2CCC(N3CCCCC3)CC2)cc1
Ans. low value

Qu. Which category fits this record: COCCNc1nc2c(c(=O)n(Cc3ccc(OC)cc3)c(=O)n2C)n1C
Ans. medium value

Qu. Which category fits this record: COc1ccc(/C(O)=C2\C(=O)C(=O)N(c3cc(C)on3)C2c2cccc(OC)c2OC)cc1C (stereo not given)
Ans. high value

Qu. Which category fits this record: Cc1ccc(C(=O)C2=C(O)C(=O)N(c3ncccn3)C2c2cccc(Cl)c2)o1 (stereo not given)
Ans. medium value

Qu. Which category fits this record: CCCSc1ccc2nc(NC(=O)OC)[nH]c2c1
Ans. high value

Qu. Which category fits this record: CC1(C)Cc2c(c(N3CCOCC3)nc3sc(C#N)c(N)c23)CS1
Ans. medium value

Qu. Which category fits this record: Cc1ccc2[nH]c3c(c2c1)CCCC3C(N)=O (stereo not given)
Ans. low value

Qu. Which category fits this record: COc1ccccc1N(Cc1cc2cccc(C)c2[nH]c1=O)C(=O)C(C)C
Ans. low value

Qu. Which category fits this record: C/C=C/c1ccccc1OCc1ccc(C(=O)O)o1
Ans. high value

Qu. Which category fits this record: COc1ccc2c(c1OC)C(=O)N1c3ccccc3C(=O)N(c3ccc(F)cc3)C21 (stereo not given)
Ans. high value

Qu. Which category fits this record: COc1ccccc1N1CCN(CCOc2c(OC)cccc2OC)CC1
Ans. high value

Qu. Which category fits this record: CCOc1nc(Oc2cccc(C(=O)O)c2)nc(Oc2cccc(C(=O)O)c2)n1
Ans. medium value

Qu. Which category fits this record: CC1(C)CC(=O)C(C=NCCN2CCN(C(=O)C34CC5CC(CC(C5)C3)C4)CC2)=C(O)C1
Ans. medium value

Qu. Which category fits this record: CCC(NC(=O)Nc1ccc(O)cc1)(C(F)(F)F)C(F)(F)F
Ans. high value

Qu. Which category fits this record: CCOC(=O)c1c(C)n(C)c2ccc(OC)c(NC(=O)CN3CCSCC3)c12
Ans. high value

Qu. Which category fits this record: COC(=O)c1ccc(CSc2ncnc3c2sc2nc(N4CCOCC4)c4c(c23)CCCC4)o1
Ans. medium value

Qu. Which category fits this record: COc1ccc(CN2CCC(=O)NC2=O)cc1
Ans. medium value

Qu. Which category fits this record: C[C@]12CC[C@@H]3c4ccc(O)cc4CC[C@H]3[C@@H]1CC[C@@H]2OC(=O)CCC(=O)O
Ans. high value

Qu. Which category fits this record: COC(=O)CNC(=O)c1c(C)cc(=O)oc1C
Ans. low value

Qu. Which category fits this record: CC1(C)Cc2c(sc3c2C2=NCCN2C=N3)CO1
Ans. medium value

Qu. Which category fits this record: Cc1cc(C)n(CC(=O)n2c3c(c4ccccc42)CCCC3)n1
Ans. medium value

Qu. Which category fits this record: CC1(C)NC(=O)N(CC(O)Cn2nnc3ccccc32)C1=O (stereo not given)
Ans. high value

Qu. Which category fits this record: O=C(Nc1ccc2c(c1)OCCO2)c1ccc(Br)o1
Ans. low value

Qu. Which category fits this record: C[C@]12CCC(=O)C=C1CC[C@@H]1[C@@H]2CC[C@@]2(C)[C@H]1CC[C@]2(O)C(=O)CO
Ans. low value

Qu. Which category fits this record: COC(=O)Nc1nc2ccc(Sc3ccccc3)cc2[nH]1
Ans. medium value

Qu. Which category fits this record: Cc1noc(NS(=O)(=O)c2ccc(N)cc2)c1C
Ans. low value

Qu. Which category fits this record: CC(C)(C)NCC(O)c1cc(O)cc(O)c1 (stereo not given)
Ans. low value

Qu. Which category fits this record: CC(C)C(C(=O)Nc1ncn[nH]1)N1C(=O)c2ccccc2C1=O (stereo not given)
Ans. high value

Qu. Which category fits this record: N#C/C(=C\c1ccc(O)c(O)c1)C(=O)NCCCc1ccccc1
Ans. low value

Qu. Which category fits this record: O=c1c2c3c(sc2n2cnnc2n1Cc1ccccc1)CN(Cc1ccccc1)CC3
Ans. medium value

Qu. Which category fits this record: COc1ccccc1OCC(=O)Nc1ccc(S(=O)(=O)Nc2cc(C)nc(C)n2)cc1
Ans. low value

Qu. Which category fits this record: C=CCNC(=O)C(C#N)c1nc2ccccc2nc1N1CCCCCC1 (stereo not given)
Ans. high value

Qu. Which category fits this record: CC1(C)Cc2c(c(-c3ccccc3)nc(N3CCCC3)c2C(N)=O)CO1
Ans. medium value

Qu. Which category fits this record: C=CCOc1nc2c(c(=O)n(C)c(=O)n2C)n1Cc1c(Cl)cccc1Cl
Ans. low value

Qu. Which category fits this record: CC(C)N=c1cc2n(-c3ccc(Cl)cc3)c3ccccc3nc-2cc1Nc1ccc(Cl)cc1
Ans. high value

Qu. Which category fits this record: CCOc1cc(C2Nc3ccccc3C(=O)N2c2ccccc2OC)ccc1O (stereo not given)
Ans. low value
